Each entry below carries its recorded melting point.
Give the value, in units of °C, as a plain number.

| MOLECULAR STRING | OBSERVABLE | UNIT ANNOTATION | RECORDED NUMBER |
| --- | --- | --- | --- |
| CCCCCCc1ccc(OCCCCCCCCCCCCCCCC(=O)Nc2ccc(O)cc2)cc1O | melting point | °C | 133.2 |
| CCCCCc1cc(O)cc(OCCCCCCCCCCCCCCCC(=O)NC2CC2)c1 | melting point | °C | 91 |
| CCCCCCCCCCCCCCCc1cccc(OCCCCCC(=O)NC2CC2)c1 | melting point | °C | 67.8 |

Ask: Sample "CCCCCCc1ccc(OCCCCCCCCCCCCCCCC(=O)NCCO)cc1O" — what was its melting point?
Result: 96.4

Ask: Sample "O=C(CCCCCCCCCCOc1cccc(O)c1)Nc1ccc(O)cc1" — what was its melting point?
Result: 121.2

Ask: Sample "CCCCCCc1ccc(OCCCCCC(=O)NC2CC2)cc1O" — what was its melting point?
Result: 134.2

Ask: Sample "CCCCCCc1ccc(OCCCCCC(=O)NCCO)cc1O" — what was its melting point?
Result: 71.2

Ask: Sample "O=C(CCCCCCCCCCCCCCCOc1cccc(O)c1)NC1CC1" — what was its melting point?
Result: 105.6

Ask: Sample "CCCCCCCCCCCCCCCc1cccc(OCCCCCCCCCCC(=O)NC2CC2)c1" — what was its melting point?
Result: 82

Ask: Sample "O=C(CCCCCCCCCCCCCCCOc1cccc(O)c1)NCCO" — what was its melting point?
Result: 94.5

Ask: Sample "CCCCCCc1ccc(O)cc1OCCCCCCCCCCC(=O)NCCO" — what was its melting point?
Result: 75.4

Ask: Sample "CCCCCCCCCCCCCCCc1cccc(OCCCCCC(=O)NCCO)c1" — what was its melting point?
Result: 62.7

Ask: Sample "CCCCCCc1ccc(O)cc1OCCCCCCCCCCC(=O)Nc1ccc(O)cc1" — what was its melting point?
Result: 108.7

Ask: Sample "CCCCCCCCCCCCCCCc1cccc(OCCCCCC(=O)Nc2ccc(O)cc2)c1" — what was its melting point?
Result: 103.2

Ask: Sample "CCCCCCc1ccc(O)cc1OCCCCCCCCCCCCCCCC(=O)NCCO" — what was its melting point?
Result: 77.2

Ask: Sample "CCCCCCc1ccc(OCCCCCCCCCCCCCCCC(=O)NC2CC2)cc1O" — what was its melting point?
Result: 114.3

Ask: Sample "CCCCCc1cc(O)cc(OCCCCCCCCCCCCCCCC(=O)Nc2ccc(O)cc2)c1" — what was its melting point?
Result: 89.5

Ask: Sample "O=C(CCCCCCCCCCOc1cccc(O)c1)NCCO" — what was its melting point?
Result: 72.1

---

TEST SYSTEM: CB1 cannabinoid receptors (Mus musculus)
Construct: N18TG2 mouse neuroblastoma cells, which constitutively and selectively express the CB 1 cannabinoid receptors; endogenous in cells; host or cells: N18TG2 mouse neuroblastoma cells
Sequence (P47746 whole entry): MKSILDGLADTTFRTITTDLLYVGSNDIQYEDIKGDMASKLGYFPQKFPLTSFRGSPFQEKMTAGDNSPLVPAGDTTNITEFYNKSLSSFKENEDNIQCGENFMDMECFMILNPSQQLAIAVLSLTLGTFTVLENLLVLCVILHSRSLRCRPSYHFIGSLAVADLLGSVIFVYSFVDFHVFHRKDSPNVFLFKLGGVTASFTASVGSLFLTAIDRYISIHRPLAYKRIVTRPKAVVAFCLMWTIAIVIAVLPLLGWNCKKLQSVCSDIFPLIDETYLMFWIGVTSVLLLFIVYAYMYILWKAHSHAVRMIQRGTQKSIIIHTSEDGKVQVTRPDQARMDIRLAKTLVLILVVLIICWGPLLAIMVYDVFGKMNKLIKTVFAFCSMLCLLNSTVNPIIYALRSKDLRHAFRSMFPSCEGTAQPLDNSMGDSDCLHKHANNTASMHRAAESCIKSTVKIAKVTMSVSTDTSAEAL
PROTOCOL DETAILS: Forskolin-induced cyclic AMP in N18TG2 neuroblastoma cells
Format: cell-based
OBSERVABLE: pEC50
Reminder that pEC50 means the negative base-10 logarithm of the concentration expressed in mol/L.

Ask: Which pEC50 is reported with CB1 cannabinoid receptors (Mus musculus) for this entry: CCCCCc1cc(O)cc(OCCCCCCCCCCC(=O)NC2CC2)c1 [Compound 25] ?
Result: 7.89
